- Tested on: LOC_OS04G38480-cb003;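 note: purified Escherichia coli-expressed rice kinase domain construct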
- Sequence (whole entry): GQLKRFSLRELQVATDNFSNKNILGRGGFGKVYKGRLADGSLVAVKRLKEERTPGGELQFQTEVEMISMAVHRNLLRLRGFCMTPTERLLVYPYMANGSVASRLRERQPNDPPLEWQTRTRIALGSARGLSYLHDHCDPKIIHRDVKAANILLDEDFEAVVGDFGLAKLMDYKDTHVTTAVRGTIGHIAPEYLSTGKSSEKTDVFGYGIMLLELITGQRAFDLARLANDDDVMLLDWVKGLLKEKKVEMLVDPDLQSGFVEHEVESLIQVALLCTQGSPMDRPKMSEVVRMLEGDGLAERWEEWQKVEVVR
- Method: thermal shift delta Tm vs DMSO control; higher = stronger stabilization (binding)
- Condition label: 12.5 µM; protein concentration 2 µM
Readout type: thermal shift delta Tm
Note: a bare number is incomplete; add the unit.

Please review the following examples before continuing.
INSERT INTO results (compound, readout_type, value_observed) VALUES
  ('C=CC(=O)N1CCN(CCCn2c(=O)c(-c3c(Cl)c(OC)cc(OC)c3Cl)cc3cnc(NC)nc32)CC1', 'thermal shift delta Tm', '0.5 °C'),
  ('CNC(=O)c1ccc(C)c(-n2c(C)cc(OCc3ccc(F)cc3F)c(Br)c2=O)c1', 'thermal shift delta Tm', '0.62 °C'),
  ('Cc1cc(Nc2ncnc3ccc(-c4ccc(CNCCS(C)(=O)=O)o4)cc23)ccc1Oc1ccn2ncnc2c1', 'thermal shift delta Tm', '1.57 °C'),
  ('CCOc1cc(N2CCC(O)CC2)ccc1Nc1ncc2c(n1)N(C)c1ccccc1C(=O)N2C', 'thermal shift delta Tm', '1.18 °C'),
  ('O=c1cc(N2CCOCC2)oc2c(-c3cccc4c3sc3ccccc34)cccc12', 'thermal shift delta Tm', '0.87 °C'),
  ('CCn1c(C(=O)N(C2CC2)C2CC2)cc2c3c(ncn3C)c(Nc3cc(C)n(C)n3)nc21', 'thermal shift delta Tm', '1.2 °C'),
  ('CCn1c2ccccc2c2cc(Nc3ccnc(NCCCN4CCOCC4)n3)ccc21', 'thermal shift delta Tm', '1.71 °C'),
  ('C=CC(=O)Nc1cccc(Nc2nc(Nc3ccc(OCCOC)cc3)ncc2F)c1', 'thermal shift delta Tm', '3.75 °C'),
  ('Cc1[nH]c(/C=C2\C(=O)Nc3ccccc32)c(C)c1CCC(=O)O [Orantinib (TSU-68, SU6668)]', 'thermal shift delta Tm', '4.57 °C'),
  ('CCCCNc1ncc(C(=O)NCc2ccc(-n3ccnc3)cc2)c(NC2CCC(O)CC2)n1 (stereo unspecified)', 'thermal shift delta Tm', '2.91 °C');

Reported thermal shift delta Tm for "Nc1ncc(-c2ccnc(Nc3ccncc3)n2)c(CC2CC2)n1" was 2.3 °C

Reported thermal shift delta Tm for "CC(C)(C)c1cc(NC(=O)Nc2ccc(-c3cn4c(n3)sc3cc(OCCN5CCOCC5)ccc34)cc2)no1" was 0.67 °C

Reported thermal shift delta Tm for "CS(=O)(=O)c1cccc(CNc2nc(Nc3ccc4c(c3)CCC(=O)N4)ncc2C(F)(F)F)c1" was 2.37 °C

Reported thermal shift delta Tm for "C#Cc1cccc(Nc2ncnc3cc(OC)c(OCCCCCCC(=O)NO)cc23)c1" was 1.01 °C

Reported thermal shift delta Tm for "COc1cc(Nc2ncc3c(n2)-c2ccc(Cl)cc2C(c2c(F)cccc2OC)=NC3)ccc1C(=O)O" was 0.2 °C

Reported thermal shift delta Tm for "Cc1ccc(NC(=O)c2ccc(CN3CC[C@H](N(C)C)C3)c(C(F)(F)F)c2)cc1Nc1nccc(-c2cncnc2)n1" was 0.66 °C

Reported thermal shift delta Tm for "CCCCNc1ncc2c(-c3ccc(CN4CCN(C)CC4)cc3)cn([C@H]3CC[C@H](O)CC3)c2n1" was 4.63 °C

Reported thermal shift delta Tm for "CC(C)(C)c1cc(/C=C(\C#N)C(N)=S)cc(C(C)(C)C)c1O" was 2.13 °C

Reported thermal shift delta Tm for CC1=C(C(=O)Nc2cc3cn[nH]c3cc2F)C(c2ccc(C(F)(F)F)cc2)CC(=O)N1 (stereo unspecified) was 0 °C

Data provenance: the supplement of paper PMC9694430
